All figures here come from ChEMBL document CHEMBL1201862.

# Test system: A498
# protocolText: NCI tumour cell line growth inhibition, 48 h
Active and inactive are the calls of the source. Cut-off read from the data, not from the text of the source: active = GI50 up to about 1.1 µM and inactive = higher.
GI50 overview

Some solved cases for reference:
CC(C)(C)C1=CC(C)(n2[nH]c(=O)n(-c3ccccc3)c2=O)C=C(C(C)(C)C)C1=O :: > 100 µM (inactive)
COc1cc(OC)c2nc(C)c3c(c2c1)OCC3 :: > 100 µM (inactive)
Cc1cc(C)nc(NC(=S)Nc2ccccc2Cl)c1 :: > 100 µM (inactive)

Request: Specify GI50 for `CCOc1ccc(/N=N/c2ccc3oc(=O)c(C(=O)Nc4ccc(OC)cc4)cc3c2)cc1` and stop.
Response: 4.22 µM (inactive)

Request: Provide measured GI50 value, entry: CC(C)(C)OC1=C(OC(C)(C)C)C(O)(c2ccc(Cl)cc2)C1=O (stereo unspecified)
Response: > 100 µM (inactive)

Request: Provide only the value of recorded GI50 for `COC(=O)[C@@H](NC(=O)N(Cc1ccccc1)C[C@H](CC(C)C)NC(=O)[C@@H](NC(=O)OC(C)(C)C)C(C)C)C(C)C`
Response: > 100 µM (inactive)

Request: Using known records, supply GI50 for `CC(C)(C)c1cc(C(C)(C)C)c(SS(=O)(=O)O)c(O)c1O`
Response: 54.7 µM (inactive)

###

# System: MDA-MB-435
# protocolText: NCI tumour cell line growth inhibition, 48 h
Activity calls are given as the source filed them. No stated cut-off is given here; in the data, active = GI50 up to about 1.1 µM and inactive = higher.
Reported GI50 by item:

C=CCN1C(=O)/C(=C/c2ccc(C)cc2)NC1=S :: 76.6 µM (inactive)
CC(C)=CCc1ccc2[nH]c3c(c2c1)C(=O)C(=O)C(C)=C3C(O)C(C)O (centres undefined) :: 2.85 µM (inactive)
Cc1cc2c(cc1-c1cc3c(cc1C)C(C(C)C)=C(O)C(=O)/C3=C\Nc1c3ccccc3nc3ccccc13)/C(=C/Nc1c3ccccc3nc3ccccc13)C(=O)C(O)=C2C(C)C :: 4.6 µM (inactive)
Cc1ccc(S(=O)(=O)NCCSCCNS(=O)(=O)c2ccc(C)cc2)cc1 :: > 100 µM (inactive)
CC(C)(C)C1=CC(C)(n2[nH]c(=O)n(-c3ccccc3)c2=O)C=C(C(C)(C)C)C1=O :: > 100 µM (inactive)
O=C(Nc1sccc1S(=O)(=O)c1ccc(Cl)cc1)c1ccc(Cl)cc1 :: > 100 µM (inactive)

Request: Fill in GI50 for record `Oc1c(CN2CCOCC2)ccc2cccnc12`
Response: > 10 µM (inactive)

Request: Tell me its GI50 given `NC(=O)c1cc(-c2ccc(-n3ccnc3)cc2)nnc1O` as the entry.
Response: > 100 µM (inactive)

###

GI50 overview
# System: OVCAR-8
# protocolText: NCI tumour cell line growth inhibition, 48 h
The source made the active and inactive calls. Cut-off read from the data, not from the text of the source: active = GI50 up to about 1.1 µM and inactive = higher.

Request: Complete the entry with GI50 for CCOC(=O)C1(Cc2ccc3ccccc3c2)CCCCC(=O)N1 (centres undefined)
Response: 55.5 µM (inactive)

Request: Give the reported GI50 for this compound. `CN(C)CCCNC(=O)CCNC(=O)c1cc(NC(=O)c2cc(NC(=O)c3cc(NC(=O)c4nc(NC(=O)CCCNC(=O)c5cc(NC(=O)c6cc(NC(=O)c7cc(NC(=O)c8nccn8C)cn7C)cn6C)cn5C)cn4C)cn3C)cn2C)cn1C`
Response: > 100 µM (inactive)

Request: Assign GI50 to the following record: `CC(=O)OCc1cc(CCC(=O)NCCNc2c3ccccc3nc3ccccc23)cc(COC(C)=O)c1O[Si](C)(C)C(C)(C)C`
Response: 13.8 µM (inactive)

Request: Kindly indicate its recorded GI50. Item: Cc1ccc(C2NC(=O)c3ccccc3N2)s1 (centres undefined)
Response: 8.43 µM (inactive)

###

# Tested on: NCI-H460
# protocolText: NCI tumour cell line growth inhibition, 48 h
Calls of active or inactive are those of the source. No stated cut-off is given here; in the data, active = GI50 up to about 1.1 µM and inactive = higher.
Please reply with one of these outcomes: active, inactive

Before answering, review these 10 worked examples.
COc1cc(OC)c2c(c1)OC(c1ccccc1)CC2=O (stereo unspecified) :: inactive
CC(=O)c1c(O)c(C)c(O)c(Cc2c(O)c3c(c(C(=O)/C=C/c4ccccc4)c2O)OC(C)(C)C=C3)c1O :: inactive
O=C(O)CSc1nnc(COc2ccc(Cl)cc2)n1-c1ccccc1 :: inactive
COc1cc(COC(=O)NC(Cc2cccs2)C(=O)O)c([N+](=O)[O-])cc1OC (stereo unspecified) :: inactive
Cc1cc2nnc(C(N)=O)c(N)c2cc1C :: inactive
S=C(NCCc1ccccn1)N/N=C(\c1ccccc1)c1ccccn1 :: active
CN(C(=O)c1ccccc1)C1CCCC(=O)CC1 (stereo unspecified) :: inactive
Oc1c(CN2CCOCC2)ccc2cccnc12 :: inactive
NC(=O)c1ccc(S(=O)(=NS(=O)(=O)c2ccccc2)c2ccc(C(N)=O)cc2)cc1 :: inactive
CC(C)(C)OC(=O)Cc1ccc2c(ccn2Cc2ccccc2)c1 :: inactive

Request: Could you please tell me the result logged for `Cc1[nH]nc(-c2ccon2)c1N=O` in this assay?
Response: inactive

###

# reported GI50; entries follow
# Test system: EKVX
# protocolText: NCI tumour cell line growth inhibition, 48 h
The source made the active and inactive calls. Cut-off read from the data, not from the text of the source: active = GI50 up to about 1.1 µM and inactive = higher.

See these solved cases before continuing.
c1ccc(C2C3=C(Nc4ncnn42)c2ccccc2C3)cc1 (stereo unspecified) :: 87.5 µM (inactive)
CN(C(=O)C1CC1)C1C2CN3CCC(O2)C13 (stereo unspecified) :: > 100 µM (inactive)
O=c1cccccc1O :: > 100 µM (inactive)

Request: State its GI50: CCCCC/C=C1\CCC(CN(C)C)C1=O (stereo unspecified)
Response: 26 µM (inactive)

Request: Return the recorded GI50 value; entry: `COCCOc1nc(-c2ccccc2)nc2ccccc12`
Response: 55.8 µM (inactive)

Request: State its GI50: CCC1(OC(=O)CNC)C(=O)OCc2c1cc1n(c2=O)Cc2cc3ccccc3nc2-1 (stereo unspecified)
Response: 0.127 µM (active)

Request: State its GI50: O=C1CC2C(=O)N(Cc3ccccc3)C1C=C2S(=O)(=O)c1ccccc1 (stereo unspecified)
Response: > 100 µM (inactive)

Request: Indicate the recorded GI50 value for this compound: Cc1ccc([N+](=O)[O-])cc1S(=O)(=O)Nc1ccc(C2=NN(c3ccc([N+](=O)[O-])cc3[N+](=O)[O-])C(c3cccs3)C2)cc1 (stereo unspecified)
Response: 15.8 µM (inactive)

###

Below, each of the compounds is paired with its reported GI50 value.
# Tested on: LXFL 529
# protocolText: NCI tumour cell line growth inhibition, 48 h
Activity calls are given as the source filed them. Rule as the data show it: active = GI50 up to about 1.1 µM and inactive = higher.

Request: Output GI50 of `CCCCCCCc1cc(OC(=O)c2c(C)cc(OC)cc2O)cc(O)c1C(=O)O`
Response: 18.2 µM (inactive)

Request: Quick one: give measured GI50 for `COC[C@H](C)/N=C/N1CCc2ccccc2C1(Cc1ccccc1)Cc1ccccc1`
Response: 11.8 µM (inactive)

Request: Report measured GI50; entry is `Oc1nc(S)nc2c1CCCN2`
Response: > 100 µM (inactive)

###

Quick reference for GI50 among some compounds
# System: Malme-3M
# protocolText: NCI tumour cell line growth inhibition, 48 h
Activity calls are given as the source filed them. Rule as the data show it: active = GI50 up to about 1.1 µM and inactive = higher.

Cc1nc2c(o1)C(=O)c1ccccc1/C2=N/c1ccc(N2CCOCC2)cc1 :: 1.74 µM (inactive)

Request: Quote GI50 reported for `CC(C)(C)c1cc(C(C)(C)C)c(SS(=O)(=O)O)c(O)c1O` please.
Response: 97.5 µM (inactive)

Request: Give reported GI50 value for `N/C(S)=N/N=C/c1ccc(O)cn1`
Response: 7.55 µM (inactive)

Request: Return reported GI50. Input compound: `CCOC(=O)c1c(C)n(Cc2ccc(Cl)cc2Cl)c2c1cc(O)c1[nH]c3c(c12)CCCC3`
Response: 20.6 µM (inactive)

Request: Tell me GI50 reported for CN1CCC2(c3ccccc3)CC(=O)/C(=C/c3ccc(Cl)c(Cl)c3)C1C2.[O-][Cl+3]([O-])([O-])O (stereo unspecified)
Response: 11.5 µM (inactive)

Request: Report GI50, nothing else, for this compound: `COCCOc1nc(-c2ccccc2)nc2ccccc12`
Response: 51.1 µM (inactive)

###

# Test system: SK-MEL-28
# protocolText: NCI tumour cell line growth inhibition, 48 h
Activity calls are given as the source filed them. Rule as the data show it: active = GI50 up to about 1.1 µM and inactive = higher.
experimentalEndpoint: GI50

Please review the entries below; each comes with its answer.
Nc1ccc(C(=O)NN2C(=O)C(Cl)C2c2ccccc2O)cc1 (stereo not given) :: > 100 µM (inactive)
Cn1c(-c2cccc(N)c2)[n+](C)c2ccccc21 :: > 100 µM (inactive)
CC(O)C1(CNc2cc(Cl)nc(N)n2)CCCC1 (stereo not given) :: > 100 µM (inactive)
O=C(CCl)N1CCN(c2ccccc2)CC1 :: 18.3 µM (inactive)
Nc1c(/N=N/c2ccc(-c3ccc(/N=N/c4c(O)ccc5cc(S(=O)(=O)O)cc(S(=O)(=O)O)c45)cc3)cc2)c(S(=O)(=O)O)cc2cc(S(=O)(=O)O)c(/N=N/c3ccccc3)c(O)c12 :: > 100 µM (inactive)

Request: Identify the reported GI50 for the following entry. `CC(C)=CCCc1c(C)ccc2c1C(=O)C(=O)C(C(C)C)=C2`
Response: 3.87 µM (inactive)

Request: Supply reported GI50 belonging to this molecule: O=C1C2c3[nH]c4ccccc4c3[C@@H]3CCCCCCCCCCC3C2C(=O)N1c1ccccc1 (stereo not given in full)
Response: 23.2 µM (inactive)

Request: Identify the reported GI50 for the following entry. `Cc1[nH]n(C(=N)N)c(=O)c1CCO`
Response: > 100 µM (inactive)

Request: Return GI50 (reported value) for this molecule: COc1ccc(OC)c2c1C=C[C@H](C1(C)SCCS1)C2C(C)=O (stereo not given in full)
Response: 24.8 µM (inactive)

Request: Fill in reported GI50 for this entry: CC(C)(C)OC1=C(OC(C)(C)C)C(O)(c2ccc(Cl)cc2)C1=O (stereo not given)
Response: > 100 µM (inactive)
